Provenance of the data: ChEMBL document CHEMBL1287801

- test name: Ratio of drug uptake in brain to plasma in rat at 10 mg/kg, po
- Format: ADME, organism-based
- Parameters: dose 10 mg/kg, route oral
- setup conditions: brain and plasma, read-out: BPR
property label: Kp
Give bare numbers.

-- ask Form field: reported Kp of CC[C@H](Nc1cc(C)nc2c(-c3ccc(OC)cc3C)c(C)nn12)c1nc(C)no1
-- reply 1.6

---

- test name: Volume of distribution in rat at 5 mg/kg, iv after 72 hrs
- Assay type: ADME, organism-based
- Design: dose 5 mg/kg, route intravenous
- setup conditions: in vivo
property label: Vd

-- ask Which measured Vd value corresponds to CC[C@H](Nc1cc(C)nc2c(-c3ccc(OC)cc3C)c(C)nn12)c1nc(C)no1 [VERUCERFONT] ?
-- reply 7.5 L/kg

---

Please provide measured Fh for the entries that follow.
- test name: Metabolic stability in human liver microsome assessed as maximum bioavailability
- Assay type: ADME
- setup conditions: liver microsomes, read-out: Max Achievable Bioavailability
Numbers only, in %.

Some compounds with known Fh results, for comparison:
>>> quantitative_readout("CCC(Nc1cc(C)nc2c(-c3ccc(OC)cc3C)c(C)nn12)c1nnc(C)o1 (stereo not given)")
64
>>> quantitative_readout("COc1ccc(-c2c(C)nn3c(NC(C)Cc4noc(C)n4)cc(C)nc23)c(C)c1 (stereo not given)")
26
>>> quantitative_readout("CCN(Cc1nc(C)no1)c1cc(C)nc2c(-c3ccc(OC)cc3C)c(C)nn12")
17

Would you be so kind as to report Fh for each listed record?
1. COc1ccc(-c2c(C)nn3c(NC(C)Cc4nc(C)no4)cc(C)nc23)c(C)c1 (stereo not given)
2. CCCN(CCC)c1cc(C)nc2c(-c3cnc(N(C)C)cc3C)c(C)nn12

-- reply
[32, 17]
